Listed below: GI50 values for each entry.
- System: HCT-15
- measurement description: NCI tumour cell line growth inhibition, 48 h

- compound: "COc1cc(Br)cc2cc(-c3cn4c(n3)sc3ccccc34)c(=O)oc12"
  GI50: "23.6 µM"
- compound: "CCOC1CN(C)/C(=N\\c2cccc3ccccc23)S1 (stereo not given)"
  GI50: "> 10 µM"
- compound: "CCOC1(OCC)N=C(N)C2(C#N)C3(C(=O)N(C(C)C)N=C3C)C12C#N (stereo not given)"
  GI50: "> 100 µM"
- compound: "O/N=C/c1ccc(O)c(O)c1"
  GI50: "44.1 µM"
- compound: "CC1(C)OCC2OC(n3cnc4c(N)nc(Cl)nc43)C(OS(C)(=O)=O)C2O1 (stereo not given)"
  GI50: "> 100 µM"
- compound: "O=S(=O)(c1cc(Cl)ccc1Cl)N1CCN(c2ccc(Cl)c(Cl)c2)CC1"
  GI50: "> 100 µM"
- compound: "Oc1ccc2c(c1)OCC1c3ccccc3OC21 (stereo not given)"
  GI50: "82.6 µM"
- compound: "CCOC(=O)Cn1c(=O)[nH]c(=O)c2[nH]cnc21"
  GI50: "> 100 µM"
- compound: "CCOC(=O)c1sc2[n+](c1C)C(=O)/C(=C/c1ccccc1Cl)S2"
  GI50: "0.834 µM"
- compound: "CN1NC(c2ccccc2)=C(C#N)C(=O)CC1c1ccccc1Cl (stereo not given)"
  GI50: "63.4 µM"
- compound: "CCN(CC)CCN1CCN=C2c3cc(OC)ccc3Nc3c([N+](=O)[O-])ccc1c32"
  GI50: "0.845 µM"
- compound: "COc1cccc2c(=O)c3c(O)c4cc(N(C)C)ccc4c(OC(C)=O)c3oc12"
  GI50: "12.7 µM"
- compound: "CC(C)CC1C(=O)NCCC(NC(=O)C(Cc2ccc(OC(C)(C)C)cc2)NC(=O)OC(C)(C)C)C(=O)NC(Cc2ccccc2)C(=O)NC(Cc2ccccc2)NC1=O (stereo not given)"
  GI50: "> 100 µM"
- compound: "NC(=O)c1cc2ccccc2o/c1=N/c1ccccc1"
  GI50: "> 100 µM"
- compound: "NNC(=O)c1cc(=O)[nH][nH]1"
  GI50: "> 100 µM"
- compound: "CC(C)C(C)C(O)C(O)C(C)C1CCC2C3COC(=O)C4CC(O)C(O)CC4(C)C3CCC12C (stereo not given)"
  GI50: "66.1 µM"
- compound: "COC(=O)CCC(NC(=O)OC(C)(C)C)C(=O)NC(Cc1ccc(NC(=O)CCCC(C)=O)cc1)C(=O)NC(CCC(=O)OC)C(=O)OC (stereo not given)"
  GI50: "> 100 µM"
- compound: "COc1cc(OC)cc(Oc2nc3cc(F)c(F)cc3nc2-c2ccccc2)c1"
  GI50: "> 100 µM"
- compound: "Cc1nnc2n(c1=O)CCCN2C"
  GI50: "> 100 µM"
- compound: "COc1cc(O)c(C(=O)/C=C/c2ccc(OC)c(OCc3ccccc3)c2)c(OC)c1"
  GI50: "10.3 µM"
- compound: "CN(C)/C=N\\c1nc(=O)n(C2CCC(CO)O2)cc1F (stereo not given)"
  GI50: "> 100 µM"
- compound: "O=C(Nc1nnc(S)[nH]1)C(=O)C(C(=O)c1ccc2ccccc2c1)C1OC(=O)c2ccccc21 (stereo not given)"
  GI50: "27.9 µM"
- compound: "CCOc1ccc(/C=N\\N2C(=O)c3ccccc3C2=O)cc1"
  GI50: "> 100 µM"
- compound: "CC1S/C(=N/c2nnc(-c3ccccc3)o2)NC1=O (stereo not given)"
  GI50: "30.4 µM"
- compound: "Cn1c(=O)c2c(ncn2CCCCOc2ccc3c(c2)[n+]([O-])nc(N)[n+]3[O-])n(C)c1=O"
  GI50: "65.2 µM"

---

Listed below: GI50 values for each entry.
- System: SK-MEL-5
- measurement description: NCI tumour cell line growth inhibition, 48 h
Active and inactive are the calls of the source. No stated cut-off is given here; in the data, active = GI50 up to about 1.1 µM and inactive = higher.
experimental readout: GI50

- molecule: "O=C(CC(O)(C(F)(F)Cl)C(F)(F)Cl)CC(O)(C(F)(F)Cl)C(F)(F)Cl"
  endpoint result: "1.25 µM (inactive)"
- molecule: "Cc1ccc2sc3cc(=O)cc(C)c-3nc2c1"
  endpoint result: "16.6 µM (inactive)"
- molecule: "CS(=O)(=O)OCCN1CCN(C(=O)c2cccc3c(Nc4ccc(S(N)(=O)=O)cc4)c4ccccc4nc23)CC1"
  endpoint result: "> 100 µM (inactive)"
- molecule: "CCN(CC)Cc1c(/C=C\\c2cc(OC)c(OC)c(OC)c2)ccc(OC)c1O"
  endpoint result: "2.68 µM (inactive)"
- molecule: "CCCCOCn1c(=O)[nH]c(=O)c2ccccc21"
  endpoint result: "54.1 µM (inactive)"
- molecule: "O=C(NN1C(=O)CSC1c1ccc(C(F)(F)F)cc1)c1ccncc1 (stereo not given)"
  endpoint result: "> 100 µM (inactive)"
- molecule: "CC#Cc1c(O)c2c(c(O)c1C#CC)C(=O)c1ccccc1C2=O"
  endpoint result: "> 100 µM (inactive)"
- molecule: "CN1CCN(/C(N)=C(\\C#N)C(=O)Nc2ccc(Cl)cc2)CC1"
  endpoint result: "27.5 µM (inactive)"
- molecule: "CN(C)/C=N\\c1nc(=O)n(C2CCC(CO)O2)cc1F (stereo not given)"
  endpoint result: "> 100 µM (inactive)"
- molecule: "C=C(C)[C@H]1C=C[C@@H](OC(=O)c2cccnc2)[C@@]23CO[C@@](C)([C@H](OC(=O)c4cccnc4)[C@@]4(OC(C)=O)C[C@H](C)[C@H](OCCC)[C@@H]4[C@H]2OC(C)=O)[C@H]13"
  endpoint result: "> 15 µM (inactive)"

---

- System: HOP-92
- measurement description: NCI tumour cell line growth inhibition, 48 h
Activity calls are given as the source filed them. Rule as the data show it: active = GI50 up to about 1.1 µM and inactive = higher.
Listed below: GI50 values for each entry.
experimental readout: GI50

- compound: "Nc1ccc2c(c1)S(=O)(=O)c1cc(N)ccc1-2"
  endpoint result: "> 100 µM (inactive)"
- compound: "O=C1CSC(c2ccccc2O)N1c1ccc(-n2c(-c3ccccc3)nc3ccccc3c2=O)cc1 (stereo not given)"
  endpoint result: "20.8 µM (inactive)"
- compound: "COc1ccc(C(=O)c2ccc(-n3c4ccccc4c4ccc5c(c43)C(=O)C=CC5=O)cc2)cc1"
  endpoint result: "1.99 µM (inactive)"
- compound: "O=C(O)CN(CC(=O)O)Cc1cc2c(cc1O)Oc1cc(O)c(CN(CC(=O)O)CC(=O)O)cc1C21OC(=O)c2ccccc21 [OFTASCEINE]"
  endpoint result: "> 100 µM (inactive)"
- compound: "C/C=C/[C@@H]1O[C@H](CC#C[Si](C)(C)C)[C@@]2(C=O)C(C)=CC[C@H](C(C)C)[C@@H]12"
  endpoint result: "17.4 µM (inactive)"
- compound: "CC(C)OCN1COCN/C1=N/C#N"
  endpoint result: "> 100 µM (inactive)"
- compound: "COc1cccc(-c2nc(-c3cnccn3)n(C3OC(CO)C(O)C3O)n2)c1 (stereo not given)"
  endpoint result: "> 100 µM (inactive)"
- compound: "Oc1ccc2c(c1)OCC1c3ccccc3OC21 (stereo not given)"
  endpoint result: "> 100 µM (inactive)"
- compound: "O=C1CCCCCC1CC(Sc1ccccc1)Sc1ccccc1 (stereo not given)"
  endpoint result: "> 100 µM (inactive)"
- compound: "COc1cc2c(c(OC)c1OC)CCNC2C1=C(O)COC1=O (stereo not given)"
  endpoint result: "> 100 µM (inactive)"

---

- Tested on: K562
- measurement description: NCI tumour cell line growth inhibition, 48 h
Calls of active or inactive are those of the source. Cut-off read from the data, not from the text of the source: active = GI50 up to about 1.1 µM and inactive = higher.
Outcomes: active, inactive

- molecule: "CCOP(=O)(CC1CC(O)(CNc2cc(Cl)nc(N)n2)C1)OCC (stereo not given)"
  answer label: "inactive"
- molecule: "CCc1cccc(C(C)C)c1NC(=O)/C(=N\\NC(N)=O)C(C(=O)OC)c1cnc2ccccc2n1 (stereo not given)"
  answer label: "inactive"
- molecule: "O=C1CSC(c2ccccc2O)N1c1ccc(-n2c(-c3ccccc3)nc3ccccc3c2=O)cc1 (stereo not given)"
  answer label: "inactive"
- molecule: "O=C(O)c1ccc(/C=N/N=C2c3ccccc3-c3ccccc32)cc1"
  answer label: "inactive"
- molecule: "Nc1nnnn1NC(=O)NCCCl"
  answer label: "inactive"
- molecule: "COC(=O)CC1C2CC3C(C2=O)C13 (stereo not given)"
  answer label: "inactive"
- molecule: "CCOC(=O)c1sc2[n+](c1C)C(=O)/C(=C/c1ccccc1Cl)S2"
  answer label: "active"
- molecule: "c1csc(-c2cc(-c3cccs3)c(-c3ccsc3)s2)c1"
  answer label: "inactive"
- molecule: "Cc1nc2ccc(Cl)cc2c2c1CCS2"
  answer label: "inactive"
- molecule: "CN[C@@H]1C[C@H]2O[C@@](C)([C@@H]1OC)n1c3ccccc3c3c4c(c5c6ccccc6n2c5c31)C(=O)N[C@@H]4O"
  answer label: "active"
- molecule: "O=C(CC(=O)Nc1ccccc1O)Nc1ccccc1O"
  answer label: "inactive"
- molecule: "O=[N+]([O-])c1ccc(C2=Nc3ccccc3[S+]([O-])C(c3ccccc3)C2)cc1 (stereo not given)"
  answer label: "inactive"
- molecule: "CC1=NN(c2cccc(Cl)c2)C2(SCC(=O)N2c2nc3ccccc3s2)/C1=C\\c1cccs1 (stereo not given)"
  answer label: "inactive"
- molecule: "C=C(C)[C@@H]1CC[C@]2(C(=O)O)CC[C@]3(C)[C@H](CC[C@@H]4[C@@]5(C)CC[C@H](O)C(C)(C)[C@@H]5CC[C@]43C)[C@@H]12"
  answer label: "inactive"
- molecule: "C=CC(C)(C)n1cc(C2=C(O)C(=O)C(c3cn(C(C)(C)C=C)c4ccccc34)=C(OC(C)=O)C2=O)c2ccccc21"
  answer label: "active"
- molecule: "Cc1cc(=O)oc2c(CN(CCCl)CCCl)c(O)ccc12"
  answer label: "inactive"
- molecule: "COc1ccc(/C=C/c2ccnc3ccccc23)c(OC)c1"
  answer label: "inactive"
- molecule: "C/C=C/[C@@H]1O[C@H](CC#C[Si](C)(C)C)[C@@]2(C=O)C(C)=CC[C@H](C(C)C)[C@@H]12"
  answer label: "inactive"
- molecule: "O=C(O)C1CCCN1Cc1cc2ccccc2c2ccccc12 (stereo not given)"
  answer label: "inactive"
- molecule: "CC[C@]1(Cc2ccc(OC)c(OC)c2)C=[N+]([O-])O[C@H](OC2CCCC2(c2ccccc2)c2ccccc2)[C@@H]1OC(=O)C(C)(C)C (stereo not given in full)"
  answer label: "inactive"
- molecule: "CC(=O)c1ccc2c(c1)oc(=O)n2CCN1CCCCC1"
  answer label: "inactive"
- molecule: "CCC(NC(C)c1ccccc1)C(=O)c1ccc(OCc2ccccc2)c(OCc2ccccc2)c1 (stereo not given)"
  answer label: "inactive"
- molecule: "COc1ccc2c(c1)OC[C@@H]1c3cc4c(cc3O[C@H]21)OCO4"
  answer label: "inactive"
- molecule: "CC(NC(=O)OC(C)(C)C)C(=O)NC(Cc1ccccc1)C(=O)NCC(=O)Oc1c(Cl)c(Cl)c(Cl)c(Cl)c1Cl (stereo not given)"
  answer label: "inactive"
- molecule: "COc1cccc2c(=O)c3c(O)c4cc(N(C)C)ccc4c(OC(C)=O)c3oc12"
  answer label: "inactive"
- molecule: "[N-]=[N+]=NC1C2CC3C4CC5CC3[C@H](C2)C(C5)C41 (stereo not given in full)"
  answer label: "inactive"
- molecule: "COc1c2cc(C(C)(C)C)cc1CSCc1cc(C(C)(C)C)cc(c1OC)CCCCC2"
  answer label: "inactive"
- molecule: "Cc1cccc2c(NCCCN(C)C)c3c([N+](=O)[O-])ccc(C)c3nc12"
  answer label: "active"
- molecule: "COc1cc(O)c(C(=O)/C=C/c2ccc(OC)c(OCc3ccccc3)c2)c(OC)c1"
  answer label: "inactive"
- molecule: "NNC(=O)CCCCCCCC(=O)O"
  answer label: "inactive"
- molecule: "COc1cc(-c2oc3c(OC)c(OC)cc(O)c3c(=O)c2OC)ccc1O"
  answer label: "inactive"
- molecule: "FC(F)(F)P1C2C=CC(CC2)C1(F)F (stereo not given)"
  answer label: "inactive"
- molecule: "c1cnc2c3[nH]cc4[nH]c5ccccc5c4c-3nc2c1"
  answer label: "inactive"
- molecule: "O/N=C/c1ccc(O)c(O)c1"
  answer label: "inactive"
- molecule: "ClC1=C(Cl)C2OC3C=CCC3OC2C(Cl)=C1Cl (stereo not given)"
  answer label: "inactive"
